Values from the supplement of paper PMC9112550

# Test system: Escherichia coli TOP10
# Protocol Summary: shrunken log2 fold change of peptide-encoding DNA abundance (4.5 h post-induction vs induction); higher = less antimicrobial activity (less host growth inhibition)
# Condition Parameters: time post-induction: 4.5 h; library: site-saturation at positions 5, 18, 19, 20
Reported Endpoint: shrunken log2 fold change
I only need the number, thanks.

The examples below pair each entry with its known result.
Report shrunken log2 fold change for RRIRNRPPRLPRPRPRPFVAPRP -0.41

Report shrunken log2 fold change for RRIRVRPPRLPRPRPRPRHFPRP 0.13

Report shrunken log2 fold change for RRIRTRPPRLPRPRPRPCSPPRP -0.0356

Report shrunken log2 fold change for RRIRVRPPRLPRPRPRPTAAPRP 0.09

Report shrunken log2 fold change for RRIRVRPPRLPRPRPRPPTDPRP 0.116

Report shrunken log2 fold change for RRIRRRPPRLPRPRPRPPNIPRP -0.0641

More entries:
Report shrunken log2 fold change for RRIRTRPPRLPRPRPRPSTPPRP -0.195

Report shrunken log2 fold change for RRIRRRPPRLPRPRPRPIGAPRP 0.435

====

# Tested on: Escherichia coli TOP10
# Protocol Summary: shrunken log2 fold change of peptide-encoding DNA abundance (4.5 h post-induction vs induction); higher = less antimicrobial activity (less host growth inhibition)
# Condition Parameters: time post-induction: 4.5 h; library: site-saturation at positions 5, 18, 19, 20
Reported Endpoint: shrunken log2 fold change

The examples below pair each entry with its known result.
Report shrunken log2 fold change for RRIRTRPPRLPRPRPRPHCVPRP -0.192

Report shrunken log2 fold change for RRIRRRPPRLPRPRPRPGARPRP 0.507

Report shrunken log2 fold change for RRIRDRPPRLPRPRPRPHQQPRP -0.0346

Report shrunken log2 fold change for RRIRQRPPRLPRPRPRPGFSPRP 0.00737

Report shrunken log2 fold change for RRIRYRPPRLPRPRPRPLGLPRP -0.126

Report shrunken log2 fold change for RRIRCRPPRLPRPRPRPNRSPRP -0.359

More entries:
Report shrunken log2 fold change for RRIRKRPPRLPRPRPRPSHAPRP 0.155

Report shrunken log2 fold change for RRIRIRPPRLPRPRPRPCWWPRP 0.082

Report shrunken log2 fold change for RRIRIRPPRLPRPRPRPNQWPRP -0.422

Report shrunken log2 fold change for RRIRRRPPRLPRPRPRPWAQPRP 0.882

Report shrunken log2 fold change for RRIRTRPPRLPRPRPRPDQHPRP -0.626

Report shrunken log2 fold change for RRIRSRPPRLPRPRPRPMCIPRP -0.0138

Report shrunken log2 fold change for RRIRRRPPRLPRPRPRPCMWPRP 0.313

Report shrunken log2 fold change for RRIRYRPPRLPRPRPRPQWTPRP -0.0155

Report shrunken log2 fold change for RRIRYRPPRLPRPRPRPSCAPRP -0.921

Report shrunken log2 fold change for RRIRYRPPRLPRPRPRPNVFPRP 0.0662

Report shrunken log2 fold change for RRIRCRPPRLPRPRPRPDLSPRP 0.0851

Report shrunken log2 fold change for RRIRPRPPRLPRPRPRPTSHPRP -0.235

Report shrunken log2 fold change for RRIRKRPPRLPRPRPRPVLIPRP -0.141

Report shrunken log2 fold change for RRIRSRPPRLPRPRPRPASVPRP 0.377

Report shrunken log2 fold change for RRIRSRPPRLPRPRPRPRCDPRP 0.144

Report shrunken log2 fold change for RRIRMRPPRLPRPRPRPKEFPRP 0.103

Report shrunken log2 fold change for RRIRPRPPRLPRPRPRPTFWPRP 0.333

Report shrunken log2 fold change for RRIRHRPPRLPRPRPRPNYKPRP -0.603

Report shrunken log2 fold change for RRIRCRPPRLPRPRPRPSTLPRP -0.686

====

# Test system: Escherichia coli TOP10
# Protocol Summary: shrunken log2 fold change of peptide-encoding DNA abundance (4.5 h post-induction vs induction); higher = less antimicrobial activity (less host growth inhibition)
# Condition Parameters: time post-induction: 4.5 h; library: site-saturation at positions 5, 18, 19, 20
Quick rule for you: shrunken log2 fold change at -0.1 or higher means true, lower means false.

Use these answered entries as a reference point.
In plain terms: is recorded shrunken log2 fold change at least -0.1 for RRIRQRPPRLPRPRPRPTTMPRP ? false

In plain terms: is recorded shrunken log2 fold change at least -0.1 for RRIRIRPPRLPRPRPRPWMAPRP ? false

In plain terms: is recorded shrunken log2 fold change at least -0.1 for RRIRRRPPRLPRPRPRPYRYPRP ? true

In plain terms: is recorded shrunken log2 fold change at least -0.1 for RRIRARPPRLPRPRPRPCSWPRP ? true

In plain terms: is recorded shrunken log2 fold change at least -0.1 for RRIRNRPPRLPRPRPRPHMDPRP ? false

More entries:
In plain terms: is recorded shrunken log2 fold change at least -0.1 for RRIRNRPPRLPRPRPRPVVYPRP ? false

In plain terms: is recorded shrunken log2 fold change at least -0.1 for RRIRARPPRLPRPRPRPFHFPRP ? false

In plain terms: is recorded shrunken log2 fold change at least -0.1 for RRIRYRPPRLPRPRPRPAGKPRP ? false

====

# Test system: Escherichia coli TOP10
# Protocol Summary: shrunken log2 fold change of peptide-encoding DNA abundance (4.5 h post-induction vs induction); higher = less antimicrobial activity (less host growth inhibition)
# Condition Parameters: time post-induction: 4.5 h; library: site-saturation at positions 5, 18, 19, 20
Measured shrunken log2 fold change of individual entries
I only need the number, thanks.

Report shrunken log2 fold change for RRIRERPPRLPRPRPRPCTRPRP 0.0517

More entries:
Report shrunken log2 fold change for RRIRCRPPRLPRPRPRPNGVPRP -0.216

Report shrunken log2 fold change for RRIRERPPRLPRPRPRPWCMPRP -0.533

====

# Test system: Escherichia coli TOP10
# Protocol Summary: shrunken log2 fold change of peptide-encoding DNA abundance (4.5 h post-induction vs induction); higher = less antimicrobial activity (less host growth inhibition)
# Condition Parameters: time post-induction: 4.5 h; library: site-saturation at positions 5, 18, 19, 20
Measured shrunken log2 fold change of individual entries

Report shrunken log2 fold change for RRIRWRPPRLPRPRPRPQWNPRP -0.156

With those in mind, consider the next sequence.
Report shrunken log2 fold change for RRIRGRPPRLPRPRPRPHFDPRP 0.469

====

# System: Escherichia coli TOP10
# Protocol Summary: shrunken log2 fold change of peptide-encoding DNA abundance (4.5 h post-induction vs induction); higher = less antimicrobial activity (less host growth inhibition)
# Condition Parameters: time post-induction: 4.5 h; library: site-saturation at positions 5, 18, 19, 20
Measured shrunken log2 fold change of individual entries
I only need the number, thanks.

The examples below pair each entry with its known result.
Report shrunken log2 fold change for RRIRQRPPRLPRPRPRPKQGPRP 0.401

Report shrunken log2 fold change for RRIRGRPPRLPRPRPRPAHYPRP 0.447

Report shrunken log2 fold change for RRIRMRPPRLPRPRPRPPWDPRP 0.931

Report shrunken log2 fold change for RRIRERPPRLPRPRPRPQIYPRP -0.23

Report shrunken log2 fold change for RRIRFRPPRLPRPRPRPGKSPRP 0.0865

More entries:
Report shrunken log2 fold change for RRIRSRPPRLPRPRPRPSTAPRP -0.0171

Report shrunken log2 fold change for RRIRGRPPRLPRPRPRPWKWPRP 0.0325

Report shrunken log2 fold change for RRIRSRPPRLPRPRPRPCGAPRP 0.327

Report shrunken log2 fold change for RRIRSRPPRLPRPRPRPEWMPRP 0.0203

Report shrunken log2 fold change for RRIRGRPPRLPRPRPRPERMPRP 0.251

Report shrunken log2 fold change for RRIRWRPPRLPRPRPRPDPTPRP 0.691

====

Measured shrunken log2 fold change of individual entries
# Test system: Escherichia coli TOP10
# Protocol Summary: shrunken log2 fold change of peptide-encoding DNA abundance (4.5 h post-induction vs induction); higher = less antimicrobial activity (less host growth inhibition)
# Condition Parameters: time post-induction: 4.5 h; library: site-saturation at positions 5, 18, 19, 20

The examples below pair each entry with its known result.
Report shrunken log2 fold change for RRIRDRPPRLPRPRPRPHKDPRP -0.239

Report shrunken log2 fold change for RRIRTRPPRLPRPRPRPMCTPRP -0.0211

Report shrunken log2 fold change for RRIRCRPPRLPRPRPRPIPGPRP -0.000108

More entries:
Report shrunken log2 fold change for RRIRARPPRLPRPRPRPIADPRP 0.394

Report shrunken log2 fold change for RRIRRRPPRLPRPRPRPFAYPRP -0.0942

====

# Tested on: Escherichia coli TOP10;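 further: peptides expressed intracellularly from a pBAD plasmid library in pooled LB shake-flask culture, induced with 0.3% L-arabinose, DNA abundance read by NGS, three biological replicates, DESeq2 with apeglm shrinkage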
# Protocol Summary: shrunken log2 fold change of peptide-encoding DNA abundance (4.5 h post-induction vs induction); higher = less antimicrobial activity (less host growth inhibition)
# Condition Parameters: time post-induction: 4.5 h; library: site-saturation at positions 5, 18, 19, 20
Quick rule for you: shrunken log2 fold change at -0.01 or higher means condition met, lower means condition not met.

In plain terms: is recorded shrunken log2 fold change at least -0.01 for RRIRCRPPRLPRPRPRPKDRPRP ? condition not met

In plain terms: is recorded shrunken log2 fold change at least -0.01 for RRIRVRPPRLPRPRPRPGGQPRP ? condition not met

In plain terms: is recorded shrunken log2 fold change at least -0.01 for RRIRVRPPRLPRPRPRPEAYPRP ? condition not met

In plain terms: is recorded shrunken log2 fold change at least -0.01 for RRIRHRPPRLPRPRPRPCCNPRP ? condition met

In plain terms: is recorded shrunken log2 fold change at least -0.01 for RRIRRRPPRLPRPRPRPTTYPRP ? condition not met

In plain terms: is recorded shrunken log2 fold change at least -0.01 for RRIRYRPPRLPRPRPRPFTWPRP ? condition not met

In plain terms: is recorded shrunken log2 fold change at least -0.01 for RRIRLRPPRLPRPRPRPQICPRP ? condition not met

In plain terms: is recorded shrunken log2 fold change at least -0.01 for RRIRIRPPRLPRPRPRPHIGPRP ? condition not met

In plain terms: is recorded shrunken log2 fold change at least -0.01 for RRIRERPPRLPRPRPRPAMEPRP ? condition not met

In plain terms: is recorded shrunken log2 fold change at least -0.01 for RRIRSRPPRLPRPRPRPDAIPRP ? condition met

More entries:
In plain terms: is recorded shrunken log2 fold change at least -0.01 for RRIRYRPPRLPRPRPRPMEPPRP ? condition not met

In plain terms: is recorded shrunken log2 fold change at least -0.01 for RRIRMRPPRLPRPRPRPAKYPRP ? condition not met

In plain terms: is recorded shrunken log2 fold change at least -0.01 for RRIRQRPPRLPRPRPRPTTKPRP ? condition not met

In plain terms: is recorded shrunken log2 fold change at least -0.01 for RRIRGRPPRLPRPRPRPREGPRP ? condition met

In plain terms: is recorded shrunken log2 fold change at least -0.01 for RRIRFRPPRLPRPRPRPDPHPRP ? condition met
